experimental-target: human histamine H3 receptor (Homo sapiens)
procedure-details: CRE-SPAP gene transcription in forskolin-stimulated CHO-H3-SPAP cells
run-conditions: CRE-SPAP; agonist immethridine; 3 antagonist concentrations
parameter-measured: Schild slope
Just the number, please, no unit attached.

compound	assay-result
NC(=NCc1ccc(Cl)cc1)SCCCc1cnc[nH]1 [clobenpropit]	1.02
C[C@H]1[C@H]2CC[C@H]3[C@@H]4CC=C5C[C@@H](N(C)C)CC[C@]5(C)[C@H]4CC[C@]23CN1C [conessine]	1.14
c1cc(CN2CCCCC2)cc(OCCCNc2nc3ccccc3s2)c1 [zolatidine]	0.96

Exercise: Query: Schild slope; subject: S=C(NC1CCCCC1)N1CCC(c2cnc[nH]2)CC1 [thioperamide]
Solution: 1.08

----------
experimental-target: human histamine H3 receptor (Homo sapiens, UniProt Q9Y5N1)
Sequence (Q9Y5N1 whole entry): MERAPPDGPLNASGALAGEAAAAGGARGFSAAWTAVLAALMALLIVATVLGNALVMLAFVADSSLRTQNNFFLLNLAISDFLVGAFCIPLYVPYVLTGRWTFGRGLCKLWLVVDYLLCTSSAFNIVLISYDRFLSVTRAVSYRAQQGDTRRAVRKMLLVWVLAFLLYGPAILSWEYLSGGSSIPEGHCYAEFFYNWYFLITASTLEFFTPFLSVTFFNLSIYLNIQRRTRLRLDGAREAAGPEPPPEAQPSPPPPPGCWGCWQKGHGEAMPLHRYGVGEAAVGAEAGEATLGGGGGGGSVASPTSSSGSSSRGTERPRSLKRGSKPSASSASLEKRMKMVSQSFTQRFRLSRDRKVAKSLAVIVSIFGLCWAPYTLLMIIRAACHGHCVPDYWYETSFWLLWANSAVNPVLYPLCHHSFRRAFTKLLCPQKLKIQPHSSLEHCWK
procedure-details: CRE-SPAP gene transcription in forskolin-stimulated CHO-H3-SPAP cells
run-conditions: pKD values, CRE-SPAP; agonist R-α-methylhistamine
parameter-measured: Kd (nM)
Supply the numeric figure in nM, leaving out any unit text.

Exercise: Query: Kd; subject: C[C@H]1[C@H]2CC[C@H]3[C@@H]4CC=C5C[C@@H](N(C)C)CC[C@]5(C)[C@H]4CC[C@]23CN1C [conessine]
Solution: 5.75

----------
experimental-target: human histamine H3 receptor (Homo sapiens)
procedure-details: CRE-SPAP gene transcription in forskolin-stimulated CHO-H3-SPAP cells
run-conditions: pKD values, CRE-SPAP; agonist histamine
parameter-measured: Kd (nM)
Supply the numeric figure in nM, leaving out any unit text.

Exercise: Query: Kd; subject: C[C@H]1[C@H]2CC[C@H]3[C@@H]4CC=C5C[C@@H](N(C)C)CC[C@]5(C)[C@H]4CC[C@]23CN1C
Solution: 5.13

----------
Listed next: entries and their corresponding Kd.
experimental-target: human histamine H3 receptor (Homo sapiens, UniProt Q9Y5N1)
procedure-details: CRE-SPAP gene transcription in forskolin-stimulated CHO-H3-SPAP cells
run-conditions: Log KD values, CRE-SPAP; agonist VUF 8430
Supply the numeric figure in µM, leaving out any unit text.

Worked examples follow.
compound	assay-result
CN(C)CCC(c1ccc(Cl)cc1)c1ccccn1 (stereo not shown)	7.41
Br.Br.c1nc(CCCC2CCNCC2)c[nH]1	0.0195
CC(C1=C(CCN(C)C)Cc2ccccc21)c1ccccn1 (stereo not shown)	7.76

Exercise: Query: Kd; subject: Cc1ccc(/C(=C\CN2CCCC2)c2ccccn2)cc1
Solution: 5.5

----------
experimental-target: human histamine H3 receptor (Homo sapiens, UniProt Q9Y5N1)
procedure-details: CRE-SPAP gene transcription in forskolin-stimulated CHO-H3-SPAP cells
run-conditions: Log KD values, CRE-SPAP; agonist histamine
parameter-measured: Kd (µM)
Supply the numeric figure in µM, leaving out any unit text.

compound	units-label	assay-result
Br.Br.c1nc(CCCC2CCNCC2)c[nH]1 [VUF 5681]	µM	0.017
CN(C)CCC(c1ccc(Cl)cc1)c1ccccn1 (stereo not shown) [chlorpheniramine]	µM	4.79
CC(C1=C(CCN(C)C)Cc2ccccc21)c1ccccn1 (stereo not shown) [dimethindine, dimethindene]	µM	2.34

Pending compound:
Exercise: Query: Kd; subject: Cc1ccc(/C(=C\CN2CCCC2)c2ccccn2)cc1 [triprolidine]
Solution: 4.47

----------
experimental-target: human histamine H3 receptor (Homo sapiens, UniProt Q9Y5N1)
procedure-details: CRE-SPAP gene transcription in forskolin-stimulated CHO-H3-SPAP cells
run-conditions: pIC50, CRE-SPAP, low potency component, CHO-H3-SPAP cells, absence of forskolin, without PTX pre-incubation
parameter-measured: pIC50
Just so you know, pIC50 here is -log10 of the concentration in molar units; reply with that number alone.

Exercise: Query: pIC50; subject: NCCCCCc1cnc[nH]1
Solution: 5.18

----------
experimental-target: human histamine H3 receptor (Homo sapiens)
procedure-details: CRE-SPAP gene transcription in forskolin-stimulated CHO-H3-SPAP cells
run-conditions: CRE-SPAP; agonist histamine; 3 antagonist concentrations
parameter-measured: Schild slope

Worked examples follow.
compound	experimental-target	assay-result
S=C(NC1CCCCC1)N1CCC(c2cnc[nH]2)CC1 [thioperamide]	human histamine H3 receptor (Homo sapiens)	1.01 ± 0.03
c1cc(CN2CCCCC2)cc(OCCCNc2nc3ccccc3s2)c1 [zolatidine]	human histamine H3 receptor (Homo sapiens)	1.01 ± 0.04

Exercise: Query: Schild slope; subject: C[C@H]1[C@H]2CC[C@H]3[C@@H]4CC=C5C[C@@H](N(C)C)CC[C@]5(C)[C@H]4CC[C@]23CN1C [conessine]
Solution: 1.07 ± 0.03

Exercise: Query: Schild slope; subject: NC(=NCc1ccc(Cl)cc1)SCCCc1cnc[nH]1 [clobenpropit]
Solution: 0.98 ± 0.03

----------
Listed next: entries and their corresponding Kd.
experimental-target: human histamine H3 receptor (Homo sapiens)
procedure-details: cell-based
Supply the numeric figure in µM, leaving out any unit text.

Worked examples follow.
molecule	parameter-measured	assay-result
Cc1ccc(/C(=C\CN2CCCC2)c2ccccn2)cc1 [triprolidine]	Kd	2.45
Br.Br.c1nc(CCCC2CCNCC2)c[nH]1 [VUF 5681]	Kd	0.0191
CC(C1=C(CCN(C)C)Cc2ccccc21)c1ccccn1 (centres unmarked) [dimethindine, dimethindene]	Kd	1.91

Exercise: Fill in the recorded Kd for this molecule, with human histamine H3 receptor (Homo sapiens) as test system: C[C@H]1[C@H]2CC[C@H]3[C@@H]4CC=C5C[C@@H](N(C)C)CC[C@]5(C)[C@H]4CC[C@]23CN1C [conessine]
Solution: 0.00813

Exercise: Fill in the recorded Kd for this molecule, with human histamine H3 receptor (Homo sapiens) as test system: CN(C)CCC(c1ccc(Cl)cc1)c1ccccn1 (centres unmarked) [chlorpheniramine]
Solution: 2.57
